# STUDY_SYSTEM: human Werner helicase (WRN, Uniprot Q14191, amino acids 517-1235 with L1074F point mutation; WRN-BV08) (Homo sapiens, UniProt Q14191, L1074F)
# Construct: Uniprot Q14191, amino acids 517-1235 with L1074F point mutation; 8xHis (C, cleaved yes); TEV cleavage site (ENLYFQG) (C, cleaved yes)
# Sequence (Q14191 with tags, fused parts or gaps L1074F): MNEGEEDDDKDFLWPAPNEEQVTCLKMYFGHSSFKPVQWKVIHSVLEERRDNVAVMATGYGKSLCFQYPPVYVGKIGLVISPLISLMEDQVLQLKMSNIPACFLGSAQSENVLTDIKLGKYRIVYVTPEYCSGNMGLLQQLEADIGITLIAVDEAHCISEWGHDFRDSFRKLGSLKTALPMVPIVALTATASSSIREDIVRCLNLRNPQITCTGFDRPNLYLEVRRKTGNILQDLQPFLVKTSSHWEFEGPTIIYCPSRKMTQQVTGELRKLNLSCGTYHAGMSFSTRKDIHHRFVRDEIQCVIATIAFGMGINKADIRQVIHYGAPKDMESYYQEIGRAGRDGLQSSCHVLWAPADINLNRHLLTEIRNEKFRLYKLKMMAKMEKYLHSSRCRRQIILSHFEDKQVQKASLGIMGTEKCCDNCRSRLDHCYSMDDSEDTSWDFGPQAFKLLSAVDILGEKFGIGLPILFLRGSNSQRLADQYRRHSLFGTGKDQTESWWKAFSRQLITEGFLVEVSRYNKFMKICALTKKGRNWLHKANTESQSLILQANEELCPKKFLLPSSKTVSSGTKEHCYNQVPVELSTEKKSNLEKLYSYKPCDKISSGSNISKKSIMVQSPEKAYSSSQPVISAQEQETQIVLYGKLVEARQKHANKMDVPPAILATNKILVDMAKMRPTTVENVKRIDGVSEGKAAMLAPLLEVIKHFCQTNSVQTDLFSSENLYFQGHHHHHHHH
# ASSAY_NOTES: WRN (BV08) ADP-Glo assay
# COND: WRN-BV08 (aa 517-1235, L1074F); read-out: ADP-Glo_hWRN_IC50
MEASURED_QUANTITY: IC50

{"columns": ["COMPOUND", "IC50"],
 "data": [
  ["CCc1c(N2CCN(C(=O)c3ncc4c(c3O)CCO4)CC2)c(=O)n2nc(C3=CCN(C(C)=O)CC3)nc2n1CC(=O)NC12CC(C(F)(F)F)(C1)C2", "5 to 50 nM"],
  ["CCc1c(N2CCN(C(=O)c3ncnc(C)c3O)[C@H]3CC[C@@H]32)c(=O)c2nn(-c3ccnc(OC(F)F)c3)nc2n1CC(=O)NC12CC(C3CC3)(C1)C2", "5 to 50 nM"],
  ["CCc1c(N2CCN(C(=O)c3ncnc(C)c3O)[C@H]3CC[C@@H]32)c(=O)c2nn(C3=CCOCC3)nc2n1CC(=O)NC12CC(C(C)(C)C)(C1)C2", "5 to 50 nM"],
  ["CCc1c(N2CCN(C(=O)c3cc(C(C)(C)O)cnc3OC)[C@H]3CC[C@@H]32)c(=O)c2nn(C3=CCOCC3)nc2n1CC(=O)NC12CC(C3CC3)(C1)C2", "5 to 50 nM"],
  ["CCc1c(N2CCN(C(=O)c3c(F)cnc(OC)c3O)[C@H]3CC[C@@H]32)c(=O)c2nn(C3=CCOCC3)nc2n1CC(=O)NC12CC(C3CC3)(C1)C2", "5 to 50 nM"]
]}

Problem: // IC50 lookup, key: CCc1c(N2CCN(C(=O)c3c(OC)ncc(C)c3O)CC2)c(=O)c2nc(N(C)C)cnc2n1CC(=O)NC12CC(C(F)(F)F)(C1)C2
Solution: 50 to 100 nM

Problem: Similarly, CCc1c(N2CCN(C(=O)c3ncnc(C)c3O)[C@H]3CC[C@@H]32)c(=O)c2nn(-c3ccnc(OC)c3)nc2n1CC(=O)NC12CC(C3CCC3)(C1)C2 ?
Solution: ≤ 5 nM

###

# STUDY_SYSTEM: human Werner helicase (WRN, Uniprot Q14191, amino acids 517-1235 with L1074F point mutation; WRN-BV08) (Homo sapiens, UniProt Q14191, L1074F)
# Construct: Uniprot Q14191, amino acids 517-1235 with L1074F point mutation; 8xHis (C, cleaved yes); TEV cleavage site (ENLYFQG) (C, cleaved yes)
# ASSAY_NOTES: WRN (BV08) ADP-Glo assay
# COND: WRN-BV08 (aa 517-1235, L1074F); read-out: ADP-Glo_hWRN_IC50
// reported IC50 per item

{"columns": ["COMPOUND", "IC50"],
 "data": [
  ["CCc1c(N2CCN(C(=O)c3c(OC)ccc4ncoc34)[C@H]3CC[C@@H]32)c(=O)c2nn(C3=CCOCC3)nc2n1CC(=O)NC12CC(C3CC3)(C1)C2 [I-180]", "0.005 to 0.05 µM"],
  ["CCc1c(N2CCN(C(=O)c3ncnc(C)c3O)[C@H]3CC[C@@H]32)c(=O)n2nc(C3=CCOCC3)nc2n1CC(=O)NC12CC(C3CC3)(C1)C2 [I-225]", "0.005 to 0.05 µM"],
  ["CCc1c(N2CCN(C(=O)c3ncc4c(c3O)CCO4)CC2)c(=O)n2nc(C3=CCOCC3)nc2n1CC(=O)NC12CC(C(F)F)(C1)C2 [I-8]", "0.1 to 0.5 µM"],
  ["CCc1c(N2CCN(C(=O)c3c(O)ccc4ncoc34)CC2)c(=O)n2nc(-c3ccnc(OC)c3)nc2n1CCNC(=O)C12CC(C(F)(F)F)(C1)C2 [I-34]", "> 0.5 µM"],
  ["CCc1c(N2CCN(C(=O)c3c(O)ccc4ncoc34)CC2)c(=O)n2nc(-c3ccnc(OC)c3)nc2n1CC(=O)NC12CC(CC)(C1)C2 [I-23]", "0.005 to 0.05 µM"]
]}

Here is the next item to consider.
Problem: Name the reported IC50 value associated with the compound CCc1c(N2CCN(C(=O)c3ncnc(C)c3O)[C@H]3CC[C@@H]32)c(=O)c2nc(N(C)C)cnc2n1CC(=O)NC12CC(C3CCC3)(C1)C2 [I-226]
Solution: 0.005 to 0.05 µM

Numbers sourced from patent US20250206738A1.
